- Measured Target: GST-Nv-NF-kB (Cys allele) (Nematostella vectensis, UniProt E5G601 2-411)
- Sequence: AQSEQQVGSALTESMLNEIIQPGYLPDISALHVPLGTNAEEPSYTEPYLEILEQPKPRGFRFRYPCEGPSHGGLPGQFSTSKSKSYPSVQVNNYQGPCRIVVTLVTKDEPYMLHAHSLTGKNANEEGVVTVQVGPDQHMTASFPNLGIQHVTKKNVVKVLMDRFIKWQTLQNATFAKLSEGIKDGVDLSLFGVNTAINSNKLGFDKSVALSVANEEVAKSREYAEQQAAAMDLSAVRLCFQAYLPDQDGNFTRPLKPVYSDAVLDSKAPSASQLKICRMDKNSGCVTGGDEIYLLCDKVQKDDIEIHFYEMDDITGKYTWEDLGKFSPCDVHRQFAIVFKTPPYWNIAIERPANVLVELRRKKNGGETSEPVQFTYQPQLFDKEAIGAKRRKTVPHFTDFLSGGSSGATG
- Assay Details: protein-binding microarray (PBM); PBM: ~300 nM protein, 6 mM HEPES pH 7.8, 80 mM KCl, 0.5 mM EDTA, 0.5 mM EGTA, 6% glycerol, 35 ng/ul poly-dIdC, 1% milk, 1 h, room temperature; high values mean tight binding
- Condition Description: dsDNA, one strand shown
Listed here are sequences together with their documented binding signal.
State the answer as a number, implicitly in z-score.

// solved cases for binding signal follow
| Sequence Code | Experimental Result |
| --- | --- |
| CCGATTAACATCAAAAGTCCCCGTGATGTTAATCGGGTCTTGATTCGCTTGACGCTGCTG | 8.18 |
| CCGATTAACATCAAAAATCCCGGTGATGTTAATCGGGTCTTGATTCGCTTGACGCTGCTG | 4.4 |

Input line: Quick check: binding signal of CCGATTAACATCACCTTGGGAAATGATGTTAATCGGGTCTTGATTCGCTTGACGCTGCTG ?
Output line: 1.7

Input line: And CCGATTAACATCAGGGGGTAAGATGATGTTAATCGGGTCTTGATTCGCTTGACGCTGCTG ?
Output line: 3.13

Input line: Repeat for the following sequence: CCGATTAACATCAGGGAACTCCATGATGTTAATCGGGTCTTGATTCGCTTGACGCTGCTG
Output line: 2.2

Input line: Same question, CCGATTAACATCAAGGGGAAAACTGATGTTAATCGGGTCTTGATTCGCTTGACGCTGCTG this time
Output line: 8.85

Input line: Ok, now CCGATTAACATCAAATAAACCCCTGATGTTAATCGGGTCTTGATTCGCTTGACGCTGCTG
Output line: 5.11

Input line: How about this sequence: CCGATTAACATCAGGCCTTCCCCTGATGTTAATCGGGTCTTGATTCGCTTGACGCTGCTG
Output line: 6.79

Input line: Request: CCGATTAACATCAAATAAGCCCCTGATGTTAATCGGGTCTTGATTCGCTTGACGCTGCTG
Output line: 5.54

----------
- Measured Target: GST-Nv-NF-kB (Ser allele) (Nematostella vectensis, UniProt A7UNT2 2-411)
- Sequence: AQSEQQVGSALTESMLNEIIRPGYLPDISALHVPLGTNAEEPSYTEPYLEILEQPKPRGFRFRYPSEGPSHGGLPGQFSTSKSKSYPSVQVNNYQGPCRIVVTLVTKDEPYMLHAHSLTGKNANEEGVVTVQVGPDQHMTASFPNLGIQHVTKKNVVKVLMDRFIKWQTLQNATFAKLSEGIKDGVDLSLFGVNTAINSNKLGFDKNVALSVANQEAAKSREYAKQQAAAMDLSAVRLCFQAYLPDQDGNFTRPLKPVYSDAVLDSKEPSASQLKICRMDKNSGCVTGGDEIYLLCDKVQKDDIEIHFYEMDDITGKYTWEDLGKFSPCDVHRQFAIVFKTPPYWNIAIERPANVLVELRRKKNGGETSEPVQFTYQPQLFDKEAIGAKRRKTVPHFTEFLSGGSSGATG
- Assay Details: protein-binding microarray (PBM); PBM: ~300 nM protein, 6 mM HEPES pH 7.8, 80 mM KCl, 0.5 mM EDTA, 0.5 mM EGTA, 6% glycerol, 35 ng/ul poly-dIdC, 1% milk, 1 h, room temperature; high values mean tight binding
- Condition Description: dsDNA, one strand shown
# if value of binding signal reaches 5 z-score, tag TRUE; if it stays below, tag FALSE

| Sequence Code | Measured Target | Cat |
| --- | --- | --- |
| CCGATTAACATCACGTTTTTCCCTGATGTTAATCGGGTCTTGATTCGCTTGACGCTGCTG | GST-Nv-NF-kB (Ser allele) (Nematostella vectensis, UniProt A7UNT2 2-411) | TRUE |

Input line: // inclusive: binding signal at least 5 z-score? input: CCGATTAACATCAAATTTCCGGGTGATGTTAATCGGGTCTTGATTCGCTTGACGCTGCTG
Output line: FALSE

Input line: Next entry: CCGATTAACATCAAATTCCCACGTGATGTTAATCGGGTCTTGATTCGCTTGACGCTGCTG
Output line: FALSE

Input line: Also CCGATTAACATCAGGGGAAAGCATGATGTTAATCGGGTCTTGATTCGCTTGACGCTGCTG , if possible.
Output line: TRUE

----------
- Measured Target: GST-Nv-NF-kB (Cys allele) (Nematostella vectensis, UniProt E5G601 2-411)
- Sequence: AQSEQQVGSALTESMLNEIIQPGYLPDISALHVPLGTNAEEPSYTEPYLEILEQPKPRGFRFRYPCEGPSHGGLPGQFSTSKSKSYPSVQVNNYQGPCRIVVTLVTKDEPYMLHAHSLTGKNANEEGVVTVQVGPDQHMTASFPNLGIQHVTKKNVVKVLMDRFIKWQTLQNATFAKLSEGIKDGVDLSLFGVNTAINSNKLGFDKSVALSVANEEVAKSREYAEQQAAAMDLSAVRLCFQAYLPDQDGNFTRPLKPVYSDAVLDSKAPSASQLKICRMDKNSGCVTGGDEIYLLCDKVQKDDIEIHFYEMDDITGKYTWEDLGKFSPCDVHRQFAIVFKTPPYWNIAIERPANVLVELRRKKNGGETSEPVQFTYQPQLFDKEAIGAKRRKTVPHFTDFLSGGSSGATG
- Assay Details: protein-binding microarray (PBM); PBM: ~300 nM protein, 6 mM HEPES pH 7.8, 80 mM KCl, 0.5 mM EDTA, 0.5 mM EGTA, 6% glycerol, 35 ng/ul poly-dIdC, 1% milk, 1 h, room temperature; high values mean tight binding
- Condition Description: dsDNA, one strand shown
Recorded Metric: binding signal (z-score)
State the answer as a number, implicitly in z-score.

These solved cases illustrate the format of a correct answer.
| Sequence Code | Experimental Result |
| --- | --- |
| CCGATTAACATCAGGGGAAGCTATGATGTTAATCGGGTCTTGATTCGCTTGACGCTGCTG | 5.26 |
| CCGATTAACATCAGGGGGAAACCTGATGTTAATCGGGTCTTGATTCGCTTGACGCTGCTG | 8.06 |
| CCGATTAACATCAGGGAAAACACTGATGTTAATCGGGTCTTGATTCGCTTGACGCTGCTG | 4.89 |

Input line: Requested read-out: binding signal. Entry: CCGATTAACATCAAATACTCCCCTGATGTTAATCGGGTCTTGATTCGCTTGACGCTGCTG
Output line: 5.48

Input line: CCGATTAACATCAATTGGGAAATTGATGTTAATCGGGTCTTGATTCGCTTGACGCTGCTG , same question.
Output line: 3.36

Input line: Cool, now CCGATTAACATCAAAAAATCACCTGATGTTAATCGGGTCTTGATTCGCTTGACGCTGCTG
Output line: 4.37

Input line: Let us now turn to CCGATTAACATCAACGTTTCCCCTGATGTTAATCGGGTCTTGATTCGCTTGACGCTGCTG
Output line: 6.77

Input line: Here is the next sequence: CCGATTAACATCAGCAATCCCCCTGATGTTAATCGGGTCTTGATTCGCTTGACGCTGCTG
Output line: 6.26

Input line: What about CCGATTAACATCAAGATACCCCCTGATGTTAATCGGGTCTTGATTCGCTTGACGCTGCTG ?
Output line: 4.31

----------
- Measured Target: GST-Nv-NF-kB (Ser allele) (Nematostella vectensis, UniProt A7UNT2 2-411)
- Sequence: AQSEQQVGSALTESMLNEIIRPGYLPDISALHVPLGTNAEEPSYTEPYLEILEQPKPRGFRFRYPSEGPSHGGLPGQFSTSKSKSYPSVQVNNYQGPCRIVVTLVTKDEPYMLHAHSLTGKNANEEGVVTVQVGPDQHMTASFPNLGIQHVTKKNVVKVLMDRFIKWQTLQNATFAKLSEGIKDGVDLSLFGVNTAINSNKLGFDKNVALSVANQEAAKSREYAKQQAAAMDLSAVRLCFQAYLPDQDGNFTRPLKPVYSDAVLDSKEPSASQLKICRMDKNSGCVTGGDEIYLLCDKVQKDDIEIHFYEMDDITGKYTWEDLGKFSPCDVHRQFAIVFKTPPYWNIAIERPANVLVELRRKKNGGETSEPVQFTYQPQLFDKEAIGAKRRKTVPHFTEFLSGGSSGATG
- Assay Details: protein-binding microarray (PBM); PBM: ~300 nM protein, 6 mM HEPES pH 7.8, 80 mM KCl, 0.5 mM EDTA, 0.5 mM EGTA, 6% glycerol, 35 ng/ul poly-dIdC, 1% milk, 1 h, room temperature; Ap Aiptasia and Nv Nematostella (sea anemones) / Co Capsaspora / Aq Amphimedon (sponge) / Dm Drosophila / Hu human; RHD is the Rel homology domain; high values mean tight binding
- Condition Description: dsDNA, one strand shown
Bucketed by reported binding signal, buckets being lower level: < 4 z-score; middle level: ≥ 4 z-score and < 7 z-score; upper level: ≥ 7 z-score

Input line: Could you tell me which band CCGATTAACATCAAGGGGATTCCTGATGTTAATCGGGTCTTGATTCGCTTGACGCTGCTG belongs to?
Output line: upper level

Input line: Check CCGATTAACATCAGATATTCCCATGATGTTAATCGGGTCTTGATTCGCTTGACGCTGCTG too.
Output line: lower level

Input line: // repeat for CCGATTAACATCAAGCATTTCCCTGATGTTAATCGGGTCTTGATTCGCTTGACGCTGCTG and report
Output line: middle level

Input line: Now consider CCGATTAACATCATGGGGAAAAATGATGTTAATCGGGTCTTGATTCGCTTGACGCTGCTG and answer again.
Output line: upper level

Input line: Further, for CCGATTAACATCACAATTTTCCCTGATGTTAATCGGGTCTTGATTCGCTTGACGCTGCTG ?
Output line: upper level

Input line: Here is the next sequence: CCGATTAACATCAGGGGAATTACTGATGTTAATCGGGTCTTGATTCGCTTGACGCTGCTG
Output line: upper level

Input line: Repeat for the following sequence: CCGATTAACATCAAAATTTCCCGTGATGTTAATCGGGTCTTGATTCGCTTGACGCTGCTG
Output line: middle level

Input line: Another: CCGATTAACATCAGGGAATCCCATGATGTTAATCGGGTCTTGATTCGCTTGACGCTGCTG
Output line: middle level

Input line: Same again, this time with CCGATTAACATCACACATGCCCCTGATGTTAATCGGGTCTTGATTCGCTTGACGCTGCTG
Output line: lower level
